Each entry below carries its reported pIC50.
# Study system: human TLR9 (Homo sapiens, UniProt Q9NR96)
# Construct: host or cells: HEK-Blue cells
# Sequence (Q9NR96 26-1032): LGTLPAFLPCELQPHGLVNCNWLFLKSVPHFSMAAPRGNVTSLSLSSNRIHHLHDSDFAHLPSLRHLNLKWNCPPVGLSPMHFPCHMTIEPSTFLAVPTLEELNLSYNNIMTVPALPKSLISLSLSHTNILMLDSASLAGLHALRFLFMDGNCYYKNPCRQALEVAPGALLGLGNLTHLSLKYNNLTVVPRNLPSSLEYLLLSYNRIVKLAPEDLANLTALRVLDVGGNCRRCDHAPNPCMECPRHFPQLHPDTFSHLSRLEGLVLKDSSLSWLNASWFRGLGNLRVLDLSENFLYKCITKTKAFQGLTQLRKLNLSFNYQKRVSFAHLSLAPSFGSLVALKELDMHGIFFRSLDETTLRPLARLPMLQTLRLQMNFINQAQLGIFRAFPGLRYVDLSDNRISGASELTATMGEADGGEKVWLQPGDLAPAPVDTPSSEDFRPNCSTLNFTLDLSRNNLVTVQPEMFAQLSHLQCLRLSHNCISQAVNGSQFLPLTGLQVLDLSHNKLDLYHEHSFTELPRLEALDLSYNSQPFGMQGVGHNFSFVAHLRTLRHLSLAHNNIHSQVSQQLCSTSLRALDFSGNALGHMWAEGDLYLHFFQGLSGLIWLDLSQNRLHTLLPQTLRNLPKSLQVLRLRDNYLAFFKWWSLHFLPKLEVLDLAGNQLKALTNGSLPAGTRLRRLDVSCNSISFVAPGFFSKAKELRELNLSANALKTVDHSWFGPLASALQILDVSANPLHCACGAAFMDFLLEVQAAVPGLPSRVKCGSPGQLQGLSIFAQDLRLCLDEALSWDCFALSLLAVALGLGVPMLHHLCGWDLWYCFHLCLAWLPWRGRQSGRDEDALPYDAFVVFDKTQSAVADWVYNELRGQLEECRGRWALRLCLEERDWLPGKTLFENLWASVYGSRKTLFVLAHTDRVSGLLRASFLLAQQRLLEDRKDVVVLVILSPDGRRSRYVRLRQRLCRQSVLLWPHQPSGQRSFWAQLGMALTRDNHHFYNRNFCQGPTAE
# Test summary: TLR9 inhibition reporter assay (HEK-Blue cells, SEAP reporter, ODN2006 stimulation)
# Type: cell-based
# Applied conditions: HEK-Blue cells overexpressing human TLR9, SEAP reporter, ODN2006 5 nM
pIC50: −log10 of the molar value.
Readout name: pIC50

{"Molecular string": "COc1cc(-c2[nH]nc(-c3ccc(C4CN(C5CCOCC5)C4)cc3)c2C(C)C)cn2ncnc12", "Study system": "human TLR9 (Homo sapiens, UniProt Q9NR96)", "Readout name": "pIC50", "Cmp": "=", "Number": 4.43}
{"Molecular string": "COc1cc(-c2[nH]nc(-c3ccc(C4CCN(CC5CC5)CC4)cn3)c2C(C)C)cn2ncnc12", "Study system": "human TLR9 (Homo sapiens, UniProt Q9NR96)", "Readout name": "pIC50", "Cmp": "=", "Number": 4.38}
{"Molecular string": "Cc1cc(-c2c(C(C)C)c(C(=O)NC3CCN(C(C)C)CC3)nn2C)cn2ncnc12", "Study system": "human TLR9 (Homo sapiens, UniProt Q9NR96)", "Readout name": "pIC50", "Cmp": "=", "Number": 4.97}
{"Molecular string": "Cc1cc(-c2[nH]nc(C(=O)N3CCC(CN)CC3)c2C(C)C)cn2ncnc12", "Study system": "human TLR9 (Homo sapiens, UniProt Q9NR96)", "Readout name": "pIC50", "Cmp": "<", "Number": 4.30}

###

# Study system: human TLR8 (Homo sapiens)
# Sequence (Q9NR97 27-1041): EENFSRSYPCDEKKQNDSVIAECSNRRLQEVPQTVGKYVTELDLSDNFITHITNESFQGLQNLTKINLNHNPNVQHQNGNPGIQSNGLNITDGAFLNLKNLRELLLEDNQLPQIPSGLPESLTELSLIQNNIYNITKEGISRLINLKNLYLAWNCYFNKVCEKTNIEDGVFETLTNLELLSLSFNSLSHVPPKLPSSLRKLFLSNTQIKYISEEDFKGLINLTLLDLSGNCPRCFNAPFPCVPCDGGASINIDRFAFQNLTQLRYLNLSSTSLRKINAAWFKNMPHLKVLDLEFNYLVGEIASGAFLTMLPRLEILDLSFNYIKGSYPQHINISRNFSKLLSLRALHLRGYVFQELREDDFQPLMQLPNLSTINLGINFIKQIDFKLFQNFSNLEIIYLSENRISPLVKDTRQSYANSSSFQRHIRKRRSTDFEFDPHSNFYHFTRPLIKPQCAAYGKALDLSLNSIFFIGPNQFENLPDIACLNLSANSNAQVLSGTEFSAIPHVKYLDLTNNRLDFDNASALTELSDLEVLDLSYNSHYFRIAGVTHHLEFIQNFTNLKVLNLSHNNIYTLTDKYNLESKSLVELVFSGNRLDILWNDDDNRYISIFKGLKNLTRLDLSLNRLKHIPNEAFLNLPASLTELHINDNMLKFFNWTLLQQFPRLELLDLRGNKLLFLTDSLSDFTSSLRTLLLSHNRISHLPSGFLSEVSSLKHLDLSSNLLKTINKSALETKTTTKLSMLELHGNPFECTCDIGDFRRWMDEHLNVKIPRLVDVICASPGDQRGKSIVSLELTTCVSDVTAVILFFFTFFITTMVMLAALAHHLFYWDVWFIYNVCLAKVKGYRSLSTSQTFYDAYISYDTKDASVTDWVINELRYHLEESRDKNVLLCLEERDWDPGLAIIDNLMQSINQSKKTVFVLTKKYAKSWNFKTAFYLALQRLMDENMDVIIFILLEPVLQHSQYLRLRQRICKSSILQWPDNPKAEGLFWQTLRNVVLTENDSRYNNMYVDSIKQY
# Test summary: TLR8 inhibition reporter assay (HEK-Blue cells, SEAP reporter, R848 stimulation)
# Applied conditions: HEK-Blue cells overexpressing human TLR8, SEAP reporter, R848 15.9 μM
Okay, here is how we bin by IC50: L (below 5 nM), M (5 nM to below 20 nM), H (20 nM or more)

{"Molecular string": "Cc1cc(-c2[nH]nc(-c3ncc(C4CCN(CC(C)(C)C)CC4)cn3)c2C(C)C)cn2ncnc12", "Class assignment": "H"}
{"Molecular string": "Cc1cc(-c2[nH]nc(C(=O)N[C@H]3CC[C@@H](NCC4(C)COC4)CC3)c2C(C)C)cn2ncnc12", "Class assignment": "H"}
{"Molecular string": "Cc1cc(-c2[nH]nc(C(=O)NC3CCN(CCCC(F)(F)F)CC3)c2C(C)C)cn2ncnc12", "Class assignment": "M"}
{"Molecular string": "Cc1cc(-c2[nH]nc(C(=O)NC3CCN(C)CC3)c2C(C)C)cn2ncnc12", "Class assignment": "M"}
{"Molecular string": "Cc1cc(-c2[nH]nc(C(=O)NC3CCN(CC4CC4)CC3)c2C(C)C)cn2ncnc12", "Class assignment": "M"}
{"Molecular string": "Cc1cc(-c2[nH]nc(C3CCN(C(=O)CCN(C)C)CC3)c2C(C)C)cn2ncnc12", "Class assignment": "L"}
{"Molecular string": "CCCN1CCC(c2cnc(-c3n[nH]c(-c4cc(OC)c5ncnn5c4)c3C(C)C)cn2)CC1", "Class assignment": "L"}
{"Molecular string": "Cc1cc(-c2[nH]nc(-c3cccc(N)c3)c2C(C)C)cn2ncnc12", "Class assignment": "M"}
{"Molecular string": "Cc1cc(-c2[nH]nc(-c3nc4c(s3)CCNC4)c2C(C)C)cn2ncnc12", "Class assignment": "H"}
{"Molecular string": "COc1cc(-c2[nH]nc(C(=O)NCC3CCNCC3)c2C(C)C)cn2ncnc12", "Class assignment": "H"}
{"Molecular string": "CCN1CCC(c2ccc(-c3n[nH]c(-c4cc(OC)c5ncnn5c4)c3C(C)C)nc2)CC1", "Class assignment": "H"}
{"Molecular string": "COc1cc(-c2[nH]nc(-c3ccc(C4CCN(CC5(C)COC5)CC4)cc3)c2C(C)C)cn2ncnc12", "Class assignment": "M"}
{"Molecular string": "Cc1cc(-c2[nH]nc(CNC3CCN(C(C)C)CC3)c2C(C)C)cn2ncnc12", "Class assignment": "L"}
{"Molecular string": "CCCN1CCC(c2ccc(-c3n[nH]c(-c4cc(OC)c5ncnn5c4)c3C(C)C)nc2)CC1", "Class assignment": "L"}
{"Molecular string": "CNC(=O)CN1CCC(NC(=O)c2n[nH]c(-c3cc(OC)c4ncnn4c3)c2CC(F)(F)F)CC1", "Class assignment": "L"}

The reported measurements were obtained from patent US20230117470A1.
